Target: human CD33 S131W (human, UniProt P20138 18-364)
Sequence (P20138 18-364 S131W limits assumed): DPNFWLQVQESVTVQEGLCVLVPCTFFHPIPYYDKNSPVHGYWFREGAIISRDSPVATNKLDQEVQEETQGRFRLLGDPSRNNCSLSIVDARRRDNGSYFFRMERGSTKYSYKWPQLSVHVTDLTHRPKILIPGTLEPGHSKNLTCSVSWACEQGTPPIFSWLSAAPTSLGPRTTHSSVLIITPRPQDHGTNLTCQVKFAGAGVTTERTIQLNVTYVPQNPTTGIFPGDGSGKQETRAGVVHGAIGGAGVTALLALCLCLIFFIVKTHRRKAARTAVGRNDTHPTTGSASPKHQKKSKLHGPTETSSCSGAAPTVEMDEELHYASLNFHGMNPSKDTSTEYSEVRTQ
Assay: flow cytometry, HEK293-T, IgG;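 also: CD33 point mutants transiently expressed, antibody binding measured by fluorescence in duplicate, background subtracted and scaled to binding on wild-type CD33 as 100%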
Value kind: Mean % WT Binding (% WT binding)
Numbers only, in % WT binding.

Given the binder Refmab #4 (antibody, human IgG1, V domains shown, tested in IgG format) VH: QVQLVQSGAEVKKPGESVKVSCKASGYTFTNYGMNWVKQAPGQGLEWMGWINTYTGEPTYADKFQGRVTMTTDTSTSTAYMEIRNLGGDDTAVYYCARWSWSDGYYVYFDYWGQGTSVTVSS VL: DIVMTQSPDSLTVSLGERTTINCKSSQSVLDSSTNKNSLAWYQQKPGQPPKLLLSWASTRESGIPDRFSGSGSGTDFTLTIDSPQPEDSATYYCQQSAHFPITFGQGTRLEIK , what is its reported Mean % WT Binding?
87.5
